System: Clone20 osteoblast Shn3 3'UTR firefly luciferase, 24 h
ASSAY_COMMENT: Shn3 3'UTR reporter inhibitors, dose response, cell-based, Clone20 osteoblasts, luminescence, dry powder, set 2 (AID 743417)
Records with an inconclusive call do not appear.
MEASURE: AC50

Below, each entry is followed by its recorded AC50 result.
COMPOUND	AC50
O=C(CN(C(=O)c1ccc(Cl)cc1)C1CCCCC1)Nc1ccc(Cl)c([N+](=O)[O-])c1	8110 nM
COc1ccccc1Cc1c(-c2ccco2)nc2c(C)cc(Br)cn12	1900 nM
CS(=O)(=O)c1ccc(Sc2nc3ccccc3s2)c([N+](=O)[O-])c1	9730 nM
COc1cc(SC)ccc1C(=O)Nc1nc(C)cs1	7090 nM
CCc1ccc(NC(=O)c2nc(S(=O)(=O)Cc3ccccc3)ncc2Cl)cc1	551 nM
CC(NCc1ccc(OCc2ccc(Cl)cc2)cc1)C(O)c1ccccc1 (stereo not drawn)	10900 nM

(Q) Write down the reported AC50 of CCOC(=O)CC1CCCCN1C(=O)c1cc(COc2cccc3cnccc23)on1 (stereo not drawn) , test system: Clone20 osteoblast Shn3 3'UTR firefly luciferase, 24 h.
(A) 713 nM
